Study target: S. cerevisiae carbamylphosphate synthetase – aspartate transcarbamylase multifunctional protein (CPSase-ATCase complex) (Saccharomyces cerevisiae, UniProt P07259)
Sequence (P07259 2-2214, one chain of several): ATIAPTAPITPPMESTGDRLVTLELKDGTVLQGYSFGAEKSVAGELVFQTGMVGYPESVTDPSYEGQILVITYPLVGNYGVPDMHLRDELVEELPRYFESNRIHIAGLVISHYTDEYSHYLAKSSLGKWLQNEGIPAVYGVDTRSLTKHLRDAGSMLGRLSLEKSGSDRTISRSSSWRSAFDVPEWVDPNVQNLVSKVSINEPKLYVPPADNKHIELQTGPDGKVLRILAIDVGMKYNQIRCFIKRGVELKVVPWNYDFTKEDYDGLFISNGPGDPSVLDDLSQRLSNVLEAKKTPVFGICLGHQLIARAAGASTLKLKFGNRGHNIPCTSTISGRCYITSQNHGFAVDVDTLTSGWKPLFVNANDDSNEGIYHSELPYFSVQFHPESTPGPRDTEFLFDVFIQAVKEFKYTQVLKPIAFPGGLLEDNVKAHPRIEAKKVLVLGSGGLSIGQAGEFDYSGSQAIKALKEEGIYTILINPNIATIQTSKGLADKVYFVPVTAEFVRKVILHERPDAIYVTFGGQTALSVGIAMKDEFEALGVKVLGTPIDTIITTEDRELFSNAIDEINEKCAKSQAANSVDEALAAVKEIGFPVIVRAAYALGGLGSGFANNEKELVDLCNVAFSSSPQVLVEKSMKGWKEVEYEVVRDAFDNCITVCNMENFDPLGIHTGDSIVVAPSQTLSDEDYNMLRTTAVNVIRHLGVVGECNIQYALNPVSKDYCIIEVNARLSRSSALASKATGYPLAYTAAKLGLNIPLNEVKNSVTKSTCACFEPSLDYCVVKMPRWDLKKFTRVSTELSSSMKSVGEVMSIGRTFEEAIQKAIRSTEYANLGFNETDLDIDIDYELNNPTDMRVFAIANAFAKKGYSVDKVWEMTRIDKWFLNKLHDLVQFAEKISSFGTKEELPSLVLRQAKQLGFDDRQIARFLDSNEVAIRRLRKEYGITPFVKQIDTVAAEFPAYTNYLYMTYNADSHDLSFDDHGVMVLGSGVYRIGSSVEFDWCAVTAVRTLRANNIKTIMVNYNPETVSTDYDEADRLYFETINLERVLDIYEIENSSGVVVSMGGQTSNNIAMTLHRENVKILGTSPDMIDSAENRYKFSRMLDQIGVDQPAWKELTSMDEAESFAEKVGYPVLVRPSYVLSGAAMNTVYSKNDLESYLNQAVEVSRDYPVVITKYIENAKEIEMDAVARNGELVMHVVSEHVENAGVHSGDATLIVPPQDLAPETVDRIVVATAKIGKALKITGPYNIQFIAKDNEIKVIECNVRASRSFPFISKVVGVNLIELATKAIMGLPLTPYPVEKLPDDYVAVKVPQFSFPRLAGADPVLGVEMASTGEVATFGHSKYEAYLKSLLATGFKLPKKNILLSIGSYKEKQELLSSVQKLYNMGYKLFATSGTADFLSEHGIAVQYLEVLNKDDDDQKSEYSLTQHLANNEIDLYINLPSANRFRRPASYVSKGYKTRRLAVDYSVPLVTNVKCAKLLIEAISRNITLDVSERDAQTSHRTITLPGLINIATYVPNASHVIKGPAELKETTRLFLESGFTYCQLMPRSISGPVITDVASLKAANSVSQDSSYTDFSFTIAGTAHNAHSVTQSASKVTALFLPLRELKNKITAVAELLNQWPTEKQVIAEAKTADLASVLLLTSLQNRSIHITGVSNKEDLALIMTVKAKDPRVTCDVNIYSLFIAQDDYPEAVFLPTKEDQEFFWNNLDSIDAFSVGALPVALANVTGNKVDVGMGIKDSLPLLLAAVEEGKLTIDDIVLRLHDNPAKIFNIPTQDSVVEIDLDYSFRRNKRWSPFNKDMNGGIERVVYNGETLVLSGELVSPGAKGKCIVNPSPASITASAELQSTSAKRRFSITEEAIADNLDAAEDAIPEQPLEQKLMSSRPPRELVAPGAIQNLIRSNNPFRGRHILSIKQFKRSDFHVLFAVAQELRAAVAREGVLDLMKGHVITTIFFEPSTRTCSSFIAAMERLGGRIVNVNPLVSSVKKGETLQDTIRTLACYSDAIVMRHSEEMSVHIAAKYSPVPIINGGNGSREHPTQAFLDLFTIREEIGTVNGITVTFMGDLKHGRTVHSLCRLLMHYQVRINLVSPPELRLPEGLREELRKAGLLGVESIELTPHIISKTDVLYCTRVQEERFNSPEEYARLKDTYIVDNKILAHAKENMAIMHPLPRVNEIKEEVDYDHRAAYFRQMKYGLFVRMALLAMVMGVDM
Assay type: biochemical
Observation type: pIC50
FYI, pIC50 means -log10 of a concentration in mol per litre.

Name the reported pIC50 value associated with the compound `O=c1ccn([C@@H]2O[C@H](COP(=O)(O)OP(=O)(O)OP(=O)(O)O)[C@@H](O)[C@H]2O)c(=O)[nH]1`
3.10
